Hello, the source for this data is PubChem BioAssay (NCI), in case you need it.

tested on: 786-0 renal; test: NCI tumour cell line growth inhibition, 48 h
Below is a list of entries, each paired with its recorded GI50 value.
Metric: GI50

| Compound | Metric | Result |
| --- | --- | --- |
| CNc1cc2nc3cc(NC)c(C)cc3cc2cc1C | GI50 | 0.683 µM |
| COc1ccc(-c2nc(Nc3ccc(-c4nc5ccccc5[nH]4)cc3)nc(N3CCOCC3)n2)cc1 | GI50 | 1.44 µM |
| COc1cc(/C=C2\Oc3cc(OCCCN4CCCC4)ccc3C2=O)cc(OC)c1 | GI50 | 3.86 µM |
| O=C(c1ccco1)c1c(C(F)(F)F)nc2ccc(C(F)(F)F)cc2[n+]1[O-] | GI50 | 27 µM |
| CCOC(=O)c1ccc2c(c1)nc(/C=C/c1ccc(Cl)cc1)n2-c1cc(C(C)(C)C)[nH]n1 | GI50 | 2.98 µM |
| O=C(O)C1C2C=CC(C2)C1C(=O)O (configuration not stated) | GI50 | > 100 µM |
| NCCCCCCCCCCCn1c2c(c3ccccc3c1=O)C(=O)c1ccccc1-2 | GI50 | 19.9 µM |
| O=C(N=Nc1c(O)[nH]c2ccccc12)c1oc2ccccc2c1CN1CCN(c2ccccc2)CC1 | GI50 | 0.865 µM |
| C=C1CCC2C3(C)COC(c4c(OC)cccc4OC)OC3CCC2(C)C1C/C=C1/C(=O)OCC1O (configuration not stated) | GI50 | 3.34 µM |
| CN(C)CCC=C1c2ccccc2C(C)(C)c2ccccc21 | GI50 | 12.8 µM |
| O=[N+]([O-])c1ccc(Sc2nc(Cl)nc(NC3CCCC3)n2)cc1 | GI50 | > 10 µM |
| C=C1COC(O)(C2OCOC(C3CC(=O)NC(=O)C3)C2O)C1C (configuration not stated) | GI50 | 0.00362 µM |
| NC1CCC(Nc2nc(NCc3cc(Cl)ccc3O)c3ncn(C4CCCC4)c3n2)CC1 (configuration not stated) | GI50 | 0.211 µM |
| CCCCCCC/C=C/[C@H]1O[C@]2(O)C(=O)C=C3C[C@@H](O[C@@H]4O[C@H](CO)[C@@H](O)C(O)[C@@H]4O)C[C@@H]3[C@H]2C=C1C (some centres not stated) | GI50 | 2.35 µM |
| NCCCn1c2c(c3ccc([N+](=O)[O-])cc3c1=O)C(=O)c1cc(-c3ccccc3)ccc1-2 | GI50 | 0.181 µM |
| Cc1[nH]c(C(=O)Nc2ccccc2OC2CCNCC2)c(Cl)c1Cl | GI50 | 0.817 µM |
| Nc1ccccc1NC(=O)c1ccc(CN2CCC/C(=C\c3ccccn3)C2=O)cc1 | GI50 | 2.71 µM |

###

tested on: CAKI-1 renal; test: NCI tumour cell line growth inhibition, 48 h
Below is a list of entries, each paired with its recorded TGI value.
Metric: TGI

| Compound | Tested Target | Result |
| --- | --- | --- |
| CCC(C)[C@H](NC(=O)NC(=O)NC(=O)CI)C(=O)OC (stereo partly specified) | CAKI-1 renal | 2.78 µM |
| O=C(NNCC(F)(F)F)c1ccncc1 | CAKI-1 renal | > 100 µM |
| c1ccc(N=c2nc(N3CCOCC3)ss2)cc1 | CAKI-1 renal | 34.5 µM |
| O=C(/C=C/c1ccccc1Cl)c1cccc2ccccc12 | CAKI-1 renal | 25.4 µM |
| COC(=O)C(Cc1ccccc1)NP(=O)(O)OCC1OC(n2cc(I)c(=O)[nH]c2=O)CC1O (stereo unspecified) | CAKI-1 renal | > 100 µM |
| O=C(O)CCNC(=O)c1cc(N(CCBr)CCBr)c([N+](=O)[O-])cc1[N+](=O)[O-] | CAKI-1 renal | > 100 µM |

###

tested on: IGROV1 ovarian; assay: NCI tumour cell line growth inhibition, 48 h
Metric: TGI

| Compound | Tested Target | Result |
| --- | --- | --- |
| COc1cc(OC)c2c(=O)c(OC)c(-c3ccc4c(c3)OCO4)oc2c1OC | IGROV1 ovarian | > 100 µM |
| N#CCOc1ccc(/C=C/C(=O)c2ccc(Cl)cc2)cc1 | IGROV1 ovarian | 60.4 µM |
| CCOc1ccc2c(C)cc(=O)oc2c1 | IGROV1 ovarian | > 100 µM |
| Cc1cc(Cl)ccc1NC(=O)CCCC(=O)C1CCC/C1=N\NC(=O)CC#N (stereo unspecified) | IGROV1 ovarian | > 100 µM |
| CN(C)CCC(CCN(C)C)=NOC(=O)c1ccccc1 | IGROV1 ovarian | > 100 µM |
| c1cc(CSSCc2ccncc2)ccn1 | IGROV1 ovarian | > 100 µM |
| c1ccc(CN2CCC3(CC2)SSC2(CCN(Cc4ccccc4)CC2)SS3)cc1 | IGROV1 ovarian | > 100 µM |
| C/C(=N\NC(=S)N1CCN(C2CCCCCC2)CC1)c1ccccn1 | IGROV1 ovarian | 3.7 µM |
| CCOC(=O)C1=C(C)N(Cc2ccccc2)C(=O)C1CC#N (stereo unspecified) | IGROV1 ovarian | > 100 µM |
| NC1=NN(c2ccccc2)C(=O)C1/C(=N\NC(=O)c1cc2ccccc2cc1O)C(=O)Nc1cccc(C(F)(F)F)c1 (stereo unspecified) | IGROV1 ovarian | > 100 µM |
| O=C(NNC(=S)Nc1ccc(Br)cc1)c1cc(-c2ccccc2)nc2ccccc12 | IGROV1 ovarian | > 100 µM |
| C/C=C(/CCC1NCCC2c3ccccc3NC12)[Si](C)(C)C (stereo unspecified) | IGROV1 ovarian | 25.6 µM |
| O=C(COc1ccc(OCC(=O)NNC2=NC(c3cc(F)c(Cl)cc3Cl)CS2)c(Cl)c1)NNC1=NC(c2cc(F)c(Cl)cc2Cl)CS1 (stereo unspecified) | IGROV1 ovarian | > 100 µM |
| O=C(O)C1C2C=CC(C2)C1C(=O)O (stereo unspecified) | IGROV1 ovarian | > 100 µM |
| CC(=O)[CH-]C(=O)c1ccccc1.CC(=O)[CH-]C(=O)c1ccccc1.CC[C@H](/C=C/C(C)[C@H]1CCC2[C@@H]3CC=C4C[C@@H]([O-])CC[C@]4(C)C3CC[C@@]21C)C(C)C.CC[O-].[Ti+4] (stereo partly specified) | IGROV1 ovarian | > 100 µM |
| CC(Oc1ccc(OCC2CCCCC2)cc1)C(=O)NCCO (stereo unspecified) | IGROV1 ovarian | > 100 µM |
| Cc1ccc2c(c1)C1C(CO2)C(c2ccccc2)=NN1c1ccccc1 (stereo unspecified) | IGROV1 ovarian | > 100 µM |
| CC(=O)c1ccc(Nc2nc(Nc3ccc(F)cc3)nc(Nc3ccc(F)cc3)n2)cc1 | IGROV1 ovarian | 28.2 µM |
| CCCCCc1cc[n+](CC(=O)c2ccc([N+](=O)[O-])cc2)cc1 | IGROV1 ovarian | 24.4 µM |
| COC(=O)c1ccc2c(c1)C(=O)c1c-2n(C)c(=O)c2cc(OC)c(OC)cc12 | IGROV1 ovarian | > 50 µM |
| C=C1CCC2C3(C)COC(c4c(OC)cccc4OC)OC3CCC2(C)C1C/C=C1/C(=O)OCC1O (stereo unspecified) | IGROV1 ovarian | 4 µM |
| CC(=O)OC1CC2(C)OC(Cc3ccccc32)O1 (stereo unspecified) | IGROV1 ovarian | > 100 µM |
| N#Cc1cc([N+](=O)[O-])ccc1NC(=O)C(F)(F)F | IGROV1 ovarian | > 100 µM |
| Cc1ccc(N=C2S/C(=C3/CCC=C3N3CCOCC3)N(c3ccc(Cl)cc3)C2=Nc2ccc(C)cc2)cc1 | IGROV1 ovarian | > 100 µM |
| Cc1cc(C)c2c(c1)C1=NCCN1C2(O)c1ccc(Cl)cc1 (stereo unspecified) | IGROV1 ovarian | 27.4 µM |
| CC1SC2(CCC(c3ccccc3)CC2)N(NC(=O)c2[nH]c3ccc(F)cc3c2-c2ccccc2)C1=O (stereo unspecified) | IGROV1 ovarian | 20 µM |
| COc1cc(CNC2=NCCC2)cc(OC)c1OC | IGROV1 ovarian | > 100 µM |
| CCCCc1ccc(-n2sc3ncc([N+](=O)[O-])cc3c2=O)cc1 | IGROV1 ovarian | 28.1 µM |
| O=C1C(=O)c2ccccc2C(O)=C1CCCc1ccc(C2CCCC2)cc1 | IGROV1 ovarian | 18.4 µM |
| Cc1cc(=O)[nH]c2cc(NC(=O)C(CCCN=C(N)N)NC(=O)OCc3ccccc3)ccc12 (stereo unspecified) | IGROV1 ovarian | > 100 µM |
| NNC1=N/C(=C\c2ccco2)C(=O)N1 | IGROV1 ovarian | > 100 µM |
| Nn1c(CCCCCCCCc2nnc(COc3ccccc3)n2N)nnc1COc1ccccc1 | IGROV1 ovarian | > 100 µM |
| CN(C)CC1CCC/C(=C\c2ccc(OC(=O)/C=C/c3ccccc3)cc2)C1=O (stereo unspecified) | IGROV1 ovarian | 14 µM |
| CCCCCCCCCCCCCCCC(=O)N[C@H](/C=C/[C@H](O)CCCCCCCCCCCCC)CO | IGROV1 ovarian | > 100 µM |
| COC(=O)NN1C(C)=C(C(=O)OC)C2(C#N)C(C(=O)OC)=C(C)N(NC(=O)OC)C12N (stereo unspecified) | IGROV1 ovarian | > 100 µM |
| Cc1cccc2nc3cccc(C(=O)NCCNCCNCCNC(=O)c4cccc5nc6cccc(C)c6nc45)c3nc12 | IGROV1 ovarian | > 39.3 µM |
| CCN1C(=O)/C(=C2\SC(c3ccccc3)(c3ccccc3)c3ccccc32)SC1=S | IGROV1 ovarian | > 100 µM |
| Cn1cc(S(=O)(=O)NC(=O)Nc2ccc(Cl)cc2)c2ccccc21 | IGROV1 ovarian | > 100 µM |
| COc1cccc(CCNc2c(C#N)c3nc4ccccc4n3c3ccccc23)c1 | IGROV1 ovarian | > 100 µM |
| O=C(N=Nc1c(O)[nH]c2ccccc12)c1oc2ccccc2c1CN1CCN(c2ccccc2)CC1 | IGROV1 ovarian | 11.2 µM |
| O=C(/C=C/c1ccccc1Cl)c1cccc2ccccc12 | IGROV1 ovarian | 29.6 µM |
